- Tested on: HT-29
- Assay details: NCI tumour cell line growth inhibition, 48 h
The source made the active and inactive calls. No stated cut-off is given here; in the data, active = GI50 up to about 1.1 µM and inactive = higher. Residues, ends and D or L forms follow the SMILES beside them. *: point of attachment. Boc = CC(C)(C)OC(=O)*; OBn = c1ccc(CO*)cc1; Bn = c1ccc(C*)cc1
For each record, write down the corresponding GI50.

Molecule	GI50
Cc1cc(O)c(C=O)c(C)c1CCC1(C)C=Cc2cc(O)ccc2O1 (stereo unspecified)	31 µM (inactive)
CC(C)CC(NC(=O)C(Cc1ccccc1)NC(=O)C(COCc1ccccc1)NC(=O)OC(C)(C)C)C(=O)OCc1ccccc1 (stereo not drawn) (Boc-Ser(Bn)-Phe-Leu-OBn; configuration not given here)	15.9 µM (inactive)

// each molecule listed below needs its GI50
1. O=c1c2ccccc2c2c1c1c3ccccc3c(=O)c1c1c3ccccc3c(=O)c21
2. CC(=O)CC[N+](C)(C)C
3. CCC(C=O)P1(=O)OC(C)(C)CN1C(C)(C)C (stereo unspecified)
4. C[N+]1(C)CCc2cc(O)c(O)cc2C1Cc1ccc(O)c(O)c1 (stereo unspecified)

> 100 µM (inactive)
32.7 µM (inactive)
> 100 µM (inactive)
34.8 µM (inactive)

// each listed molecule needs a value for GI50
1. COc1ccc(OC)c(/C=C(/C#N)c2ccccc2)c1
2. COc1cc(C2SCC(=O)N2c2cccc(Cl)c2)cc(OC)c1OC (stereo unspecified)
3. COc1cc(CNc2ccc(C(C)C)cc2)cc(OC)c1OC
4. C1CCC2C(C1)CCCC2NC1=NCCO1 (stereo unspecified)
5. COC(=O)CCC(=O)Nc1ccc(Cl)cc1C

["6.52 µM (inactive)", "> 100 µM (inactive)", "16.9 µM (inactive)", "35.7 µM (inactive)", "> 100 µM (inactive)"]
